src = patent US20070077617

# systemUnderTest: fusion protein PRW
# Sequence (chain, as listed by the source): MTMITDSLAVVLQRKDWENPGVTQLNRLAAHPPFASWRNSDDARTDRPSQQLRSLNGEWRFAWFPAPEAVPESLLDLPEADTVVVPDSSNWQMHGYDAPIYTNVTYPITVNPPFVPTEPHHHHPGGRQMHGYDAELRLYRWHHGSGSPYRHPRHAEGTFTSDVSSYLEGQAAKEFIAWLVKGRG
endpoint: relative cleavage efficiency

protein="OmpT protease variant OmpT D97A (protein) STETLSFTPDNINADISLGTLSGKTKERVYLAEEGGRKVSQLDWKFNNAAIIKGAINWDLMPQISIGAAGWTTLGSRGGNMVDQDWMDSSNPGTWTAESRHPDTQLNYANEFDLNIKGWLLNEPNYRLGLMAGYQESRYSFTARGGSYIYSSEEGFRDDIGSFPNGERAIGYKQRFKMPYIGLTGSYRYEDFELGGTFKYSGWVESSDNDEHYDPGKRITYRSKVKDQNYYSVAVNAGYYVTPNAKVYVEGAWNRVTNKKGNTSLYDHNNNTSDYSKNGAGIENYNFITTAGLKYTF" obsvalue="less than 3%"
protein="OmpT protease variant OmpT D97Q (protein) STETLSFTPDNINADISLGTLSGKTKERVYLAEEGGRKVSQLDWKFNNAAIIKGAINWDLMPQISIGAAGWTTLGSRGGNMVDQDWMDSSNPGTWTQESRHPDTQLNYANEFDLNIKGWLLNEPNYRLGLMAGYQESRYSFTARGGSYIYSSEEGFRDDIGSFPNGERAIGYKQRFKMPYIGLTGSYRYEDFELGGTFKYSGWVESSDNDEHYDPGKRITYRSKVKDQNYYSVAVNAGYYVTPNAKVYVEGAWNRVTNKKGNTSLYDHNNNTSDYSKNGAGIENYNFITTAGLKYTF" obsvalue="less than 3%"
protein="OmpT protease variant OmpT D97C (protein) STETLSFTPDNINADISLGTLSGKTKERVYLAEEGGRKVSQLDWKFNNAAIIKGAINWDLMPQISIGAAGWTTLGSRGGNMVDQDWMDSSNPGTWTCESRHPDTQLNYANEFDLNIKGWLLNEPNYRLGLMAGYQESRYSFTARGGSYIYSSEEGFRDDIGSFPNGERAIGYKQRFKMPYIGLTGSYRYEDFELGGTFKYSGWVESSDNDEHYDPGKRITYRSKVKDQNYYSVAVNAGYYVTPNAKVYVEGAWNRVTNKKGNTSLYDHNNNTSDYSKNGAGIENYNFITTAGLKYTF" obsvalue="less than 3%"
